Let's look at some binders and their measured interaction score.
Molecular target: T1, 4H355-AA
T1 chain: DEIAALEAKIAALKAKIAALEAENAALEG
Assay: two-hybrid library CCmax;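 also: natural log of median RNA to DNA barcode read ratio; higher means stronger binding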
Details: mean of both orientations
Lab note: record just the number, no unit beside it.

// solved cases for interaction score follow
INSERT INTO results (binder, quantitativereadout) VALUES
  ('DKIAALKAEIAALEAKIAALEAKNAALKG [4H2600-AA]', 2.12),
  ('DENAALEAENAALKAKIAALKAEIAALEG [4H1257-AA]', -1.88),
  ('DKIAALKAKIAALKAENAALEAEIAALKG [4H2898-AA]', 0.0321);

// next item, interaction score requested
query: Which measured interaction score value corresponds to DENAALKAKIAALEAEIAALKAEIAALKG [4H1802-AA] ?
result: -0.981
